Apoptosis regulator Bcl-2 (Homo sapiens, UniProt P10415): recorded pKi for assorted molecules
Sequence (P10415 whole entry): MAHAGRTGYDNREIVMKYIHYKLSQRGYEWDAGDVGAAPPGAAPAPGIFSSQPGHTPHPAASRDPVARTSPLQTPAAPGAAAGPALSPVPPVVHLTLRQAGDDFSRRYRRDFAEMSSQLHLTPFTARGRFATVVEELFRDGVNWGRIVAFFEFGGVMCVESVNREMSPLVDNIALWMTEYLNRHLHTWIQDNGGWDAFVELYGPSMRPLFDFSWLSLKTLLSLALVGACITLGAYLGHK
pKi: −log10 of the molar value.
reported-property: pKi

molecule=CN(C)CC[C@H](CSc1ccccc1)Nc1ccc(S(=O)(=O)NC(=O)c2ccc(N3CCC(=Cc4ccc(Cl)cc4)CC3)cc2)cc1[N+](=O)[O-] system_name="Apoptosis regulator Bcl-2 (Homo sapiens, UniProt P10415)" reported_property=pKi observed_measurement=8.68

(a) COC1(Cc2ccc(Cl)cc2)CCN(c2ccc(C(=O)NS(=O)(=O)c3ccc(N[C@H](CCN(C)C)CSc4ccccc4)c([N+](=O)[O-])c3)cc2)CC1
(b) CC1OC2(CCN(c3ccc(C(=O)NS(=O)(=O)c4ccc(N[C@H](CCN(C)C)CSc5ccccc5)c([N+](=O)[O-])c4)cc3)CC2)N(Cc2ccccc2)C1=O (stereo partly specified)
I'm curious, which of these has a smaller pKi number: a or b ? Mark your answer with the label of the selected entry. b

* * *

target: Bcl-2-like protein 1 (Homo sapiens, UniProt Q07817); assay: Displacement of Bad-derived peptide from Bcl-xL by FPA in presence of 10% human serum
Sequence (Q07817 whole entry): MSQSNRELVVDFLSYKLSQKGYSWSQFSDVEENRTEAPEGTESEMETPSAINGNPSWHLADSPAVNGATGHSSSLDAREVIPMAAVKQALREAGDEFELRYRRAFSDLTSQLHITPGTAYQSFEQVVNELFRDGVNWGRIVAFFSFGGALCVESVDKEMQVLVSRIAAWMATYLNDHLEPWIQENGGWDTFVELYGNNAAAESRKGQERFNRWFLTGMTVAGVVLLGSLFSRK
reported-property: IC50 (µM)

(I) COC1(Cc2ccccc2C)CCN(c2ccc(C(=O)NS(=O)(=O)c3ccc(N[C@H](CCN(C)C)CSc4ccccc4)c([N+](=O)[O-])c3)cc2)CC1
(II) COC1(Cc2cccc(Cl)c2)CCN(c2ccc(C(=O)NS(=O)(=O)c3ccc(N[C@H](CCN(C)C)CSc4ccccc4)c([N+](=O)[O-])c3)cc2)CC1
(III) COC1(CC(C)C)CCN(c2ccc(C(=O)NS(=O)(=O)c3ccc(N[C@H](CCN(C)C)CSc4ccccc4)c([N+](=O)[O-])c3)cc2)CC1
# sort list by recorded IC50, greatest to least Answer format: the labels, in the requested order. III, II, I
(III: 0.36 µM, II: 0.17 µM, I: 0.071 µM)

* * *

biological target: Bcl-2-like protein 1 (Homo sapiens); assay: Displacement of Bad-derived peptide from Bcl-xL by FPA in presence of 10% human serum
pIC50: −log10 of the molar value.
reported-property: pIC50

(P) CN(C)CC[C@H](CSc1ccccc1)Nc1ccc(S(=O)(=O)NC(=O)c2ccc(N3CCC(=Cc4ccccc4C#N)CC3)cc2)cc1[N+](=O)[O-]
(Q) COc1ccccc1CN1CCN(c2ccc(C(=O)NS(=O)(=O)c3ccc(N[C@H](CCN(C)C)CSc4ccccc4)c([N+](=O)[O-])c3)cc2)CC1
Determine, for P and Q , which has the greater value of pIC50. Mark your answer with the label of the selected entry. Q

* * *

Bcl-2-like protein 1 (Homo sapiens, UniProt Q07817): recorded pKi for assorted compounds
pKi: −log10 of the molar value.
reported-property: pKi

smiles_representation=COC1(Cc2ccccc2)CCN(c2ccc(C(=O)NS(=O)(=O)c3ccc(N[C@H](CCN(C)C)CSc4ccccc4)c([N+](=O)[O-])c3)cc2)CC1 system_name="Bcl-2-like protein 1 (Homo sapiens, UniProt Q07817)" observed_measurement=8.74
smiles_representation=COC1(Cc2ccc(-c3ccccc3)cc2)CCN(c2ccc(C(=O)NS(=O)(=O)c3ccc(N[C@H](CCN(C)C)CSc4ccccc4)c([N+](=O)[O-])c3)cc2)CC1 system_name="Bcl-2-like protein 1 (Homo sapiens, UniProt Q07817)" observed_measurement=9.05
smiles_representation=COc1ccccc1C=C1CCN(c2ccc(C(=O)NS(=O)(=O)c3ccc(N[C@H](CCN(C)C)CSc4ccccc4)c([N+](=O)[O-])c3)cc2)CC1 system_name="Bcl-2-like protein 1 (Homo sapiens, UniProt Q07817)" observed_measurement=9.22
smiles_representation=CN(C)CC[C@H](CSc1ccccc1)Nc1ccc(S(=O)(=O)NC(=O)c2ccc(N3CCN(C(=O)Nc4ccccc4)CC3)cc2)cc1[N+](=O)[O-] system_name="Bcl-2-like protein 1 (Homo sapiens, UniProt Q07817)" observed_measurement=8.60
smiles_representation=CN(C)CC[C@H](CSc1ccccc1)Nc1ccc(S(=O)(=O)NC(=O)c2ccc(N3CCN(Cc4ccccc4NC4CCCCC4)CC3)cc2)cc1[N+](=O)[O-] system_name="Bcl-2-like protein 1 (Homo sapiens, UniProt Q07817)" observed_measurement=9.22

(1) CCCCCC1(OC)CCN(c2ccc(C(=O)NS(=O)(=O)c3ccc(N[C@H](CCN(C)C)CSc4ccccc4)c([N+](=O)[O-])c3)cc2)CC1
(2) Cc1ccc(S(=O)(=O)N2CCN(c3ccc(C(=O)NS(=O)(=O)c4ccc(N[C@H](CCN(C)C)CSc5ccccc5)c([N+](=O)[O-])c4)cc3)CC2)cc1
Determine, for 1 and 2 , which has the greater value of pKi. Mark your answer with the label of the selected entry. 1
(1: 8.89, 2: 8.40)

* * *

biological target: Bcl-2-like protein 1 (Homo sapiens); assay: Displacement of Bad-derived peptide from Bcl-xL by FPA in presence of 10% human serum
pIC50: −log10 of the molar value.
reported-property: pIC50

See these solved cases before continuing.
smiles_representation=COC1(Cc2ccccc2)CCN(c2ccc(C(=O)NS(=O)(=O)c3ccc(N[C@H](CCN(C)C)CSc4ccccc4)c([N+](=O)[O-])c3)cc2)CC1 system_name="Bcl-2-like protein 1 (Homo sapiens)" observed_measurement=6.82
smiles_representation=CC1(C)CCN(c2ccc(C(=O)NS(=O)(=O)c3ccc(NC(C)(C)CSc4ccccc4)c([N+](=O)[O-])c3)cc2)CC1 system_name="Bcl-2-like protein 1 (Homo sapiens)" observed_measurement=6.44
smiles_representation=CN(C)CC[C@H](CSc1ccccc1)Nc1ccc(S(=O)(=O)NC(=O)c2ccc(N3CCN(Cc4ccccc4-c4cccc(Cl)c4)CC3)cc2)cc1[N+](=O)[O-] system_name="Bcl-2-like protein 1 (Homo sapiens)" observed_measurement=6.85
smiles_representation=COC1(Cc2ccc(-c3ccccc3)cc2)CCN(c2ccc(C(=O)NS(=O)(=O)c3ccc(N[C@H](CCN(C)C)CSc4ccccc4)c([N+](=O)[O-])c3)cc2)CC1 system_name="Bcl-2-like protein 1 (Homo sapiens)" observed_measurement=6.80
smiles_representation=CN(C)CC[C@H](CSc1ccccc1)Nc1ccc(S(=O)(=O)NC(=O)c2ccc(N3CCN(Cc4ccccc4S(C)(=O)=O)CC3)cc2)cc1[N+](=O)[O-] system_name="Bcl-2-like protein 1 (Homo sapiens)" observed_measurement=6.77
smiles_representation=COc1ccccc1C=C1CCN(c2ccc(C(=O)NS(=O)(=O)c3ccc(N[C@H](CCN(C)C)CSc4ccccc4)c([N+](=O)[O-])c3)cc2)CC1 system_name="Bcl-2-like protein 1 (Homo sapiens)" observed_measurement=6.12
smiles_representation=CN(C)CC[C@H](CSc1ccccc1)Nc1ccc(S(=O)(=O)NC(=O)c2ccc(N3CCC(=Cc4ccc(F)cc4)CC3)cc2)cc1[N+](=O)[O-] system_name="Bcl-2-like protein 1 (Homo sapiens)" observed_measurement=6.28
smiles_representation=COc1ccccc1CC1(OC)CCN(c2ccc(C(=O)NS(=O)(=O)c3ccc(N[C@H](CCN(C)C)CSc4ccccc4)c([N+](=O)[O-])c3)cc2)CC1 system_name="Bcl-2-like protein 1 (Homo sapiens)" observed_measurement=7.12
smiles_representation=CN(C)CC[C@H](CSc1ccccc1)Nc1ccc(S(=O)(=O)NC(=O)c2ccc(N3CCN(Cc4ccccc4C(F)(F)F)CC3)cc2)cc1[N+](=O)[O-] system_name="Bcl-2-like protein 1 (Homo sapiens)" observed_measurement=7.07
smiles_representation=COC1(Cc2ccc(Cl)cc2)CCN(c2ccc(C(=O)NS(=O)(=O)c3ccc(N[C@H](CCN(C)C)CSc4ccccc4)c([N+](=O)[O-])c3)cc2)CC1 system_name="Bcl-2-like protein 1 (Homo sapiens)" observed_measurement=6.70

(P) CN(C)CC[C@H](CSc1ccccc1)Nc1ccc(S(=O)(=O)NC(=O)c2ccc(N3CCN(Cc4ccccc4NC4CCCCC4)CC3)cc2)cc1[N+](=O)[O-]
(Q) COc1cccc(-c2ccccc2CN2CCN(c3ccc(C(=O)NS(=O)(=O)c4ccc(N[C@H](CCN(C)C)CSc5ccccc5)c([N+](=O)[O-])c4)cc3)CC2)c1
I'm curious, which of these has a smaller pIC50 number: P or Q ? Mark your answer with the label of the selected entry. P
(P: 6.43, Q: 6.75)

* * *

Listed compounds paired with reported pKi
biological target: Bcl-2-like protein 1 (Homo sapiens)
pKi: −log10 of the molar value.

smiles_representation=CN(C)CC[C@H](CSc1ccccc1)Nc1ccc(S(=O)(=O)NC(=O)c2ccc(N3CCC(=Cc4ccccc4-c4ccccc4)CC3)cc2)cc1[N+](=O)[O-] observed_measurement="> 9.30"
smiles_representation=CN(C)CC[C@H](CSc1ccccc1)Nc1ccc(S(=O)(=O)NC(=O)c2ccc(N3CCN(Cc4ccccc4-c4ccccc4)CC3)cc2)cc1[N+](=O)[O-] observed_measurement="> 9.30"
smiles_representation=CN(C)CC[C@H](CSc1ccccc1)Nc1ccc(S(=O)(=O)NC(=O)c2ccc(N3CCN(Cc4ccccc4-c4ccc(-c5ccccc5)cc4)CC3)cc2)cc1[N+](=O)[O-] observed_measurement=9.00

Okay, next one:
Value of pKi reported for the compound `COc1cccc(-c2ccccc2CN2CCN(c3ccc(C(=O)NS(=O)(=O)c4ccc(N[C@H](CCN(C)C)CSc5ccccc5)c([N+](=O)[O-])c4)cc3)CC2)c1` is > 9.30

Just for reference, ChEMBL document CHEMBL1141382 is where these values come from.
